# EXPERIMENT_DESCRIPTION: Hepatocyte stability assay, mouse
# Format: in vitro ADME
# TEST_CONDITIONS: mouse, cryopreserved hepatocytes, 10 μM compound, Table 6, read-out: T½
MEASURED_ATTRIBUTE: half-life at 10 μM

MOLECULE: O=C(O)/C=C/C(=O)OC1(c2ccc(C(F)(F)F)c(Cl)c2)CCC1 [Intermediate 26]
MEASURED_ATTRIBUTE: half-life at 10 μM
TEST_RESULT: 30 to 100 min
--
MOLECULE: O=C(O)/C=C/C(=O)OC1(c2cc(Cl)c(F)c(Cl)c2)CCC1 [Intermediate 25]
MEASURED_ATTRIBUTE: half-life at 10 μM
TEST_RESULT: 30 to 100 min
--
MOLECULE: O=C(O)/C=C/C(=O)OC1(c2cc(F)c(C(F)(F)F)c(F)c2)CCC1 [Intermediate 29]
MEASURED_ATTRIBUTE: half-life at 10 μM
TEST_RESULT: 30 to 100 min
--
MOLECULE: O=C(O)/C=C/C(=O)OC1(c2ccc(C(F)(F)F)c(F)c2)CCC1 [Intermediate 16]
MEASURED_ATTRIBUTE: half-life at 10 μM
TEST_RESULT: 30 to 100 min
--
MOLECULE: O=C(O)/C=C/C(=O)OC1(c2ccc(C(F)(F)F)cc2)CSC1 [Intermediate 17]
MEASURED_ATTRIBUTE: half-life at 10 μM
TEST_RESULT: 5 to 29 min
--
MOLECULE: O=C(O)/C=C/C(=O)OC1(c2ccc(C(F)(F)F)cc2)CC1 [Intermediate 38]
MEASURED_ATTRIBUTE: half-life at 10 μM
TEST_RESULT: 5 to 29 min
--
MOLECULE: C[C@H](OC(=O)/C=C/C(=O)O)c1ccc(C(F)(F)F)cc1 [Intermediate 19]
MEASURED_ATTRIBUTE: half-life at 10 μM
TEST_RESULT: 5 to 29 min
--
MOLECULE: C[C@@H](OC(=O)/C=C/C(=O)O)c1ccc(C(F)(F)F)cc1 [Intermediate 20]
MEASURED_ATTRIBUTE: half-life at 10 μM
TEST_RESULT: 30 to 100 min

* * *

# Tested on: IL-1β
# EXPERIMENT_DESCRIPTION: THP-1 AlphaLISA IL-1β cytokine assay
# Type: cell-based
# TEST_CONDITIONS: Homo sapiens; differentiated THP-1 cells, LPS then Nigericin; Table 1
pIC50: −log10 of the molar value.
MEASURED_ATTRIBUTE: pIC50

COMPOUND: C[C@H](OC(=O)/C=C/C(=O)OC1CCCCCCC1)C(=O)O [Example 6]
TEST_RESULT: > 5.60
--
COMPOUND: C[C@@H](OC(=O)/C=C/C(=O)OC1CCCCCCC1)C(=O)O [Example 12]
TEST_RESULT: > 5.60
--
COMPOUND: O=C(/C=C/C(=O)OC1CCCCCCC1)OCCc1nnn[nH]1 [Example 5]
TEST_RESULT: 5.21 to 5.60
--
COMPOUND: CCCCCC[C@@H](C)OC(=O)/C=C/C(=O)OCCC(=O)O [Example 14]
TEST_RESULT: > 5.60
--
COMPOUND: O=C(O)CCOC(=O)/C=C/C(=O)OC1CCCCC1 [Example 4]
TEST_RESULT: 5.21 to 5.60
--
COMPOUND: O=C(/C=C/C(=O)OC1(C(=O)O)CC1)OC1CCCCCCC1 [Example 8]
TEST_RESULT: > 5.60
--
COMPOUND: O=C(O)COC(=O)/C=C/C(=O)OC1CCCCC1 [Example 2]
TEST_RESULT: 4.84 to 5.03
